Assay: soluble fraction after stress (log2 fold change); higher = more stays soluble; pooled small domains, quantitative proteomics
Details: stress: pH 4
value-kind: soluble fraction (log2)
Please give only the number in your answer, with no unit.

| chain-sequence | soluble fraction (log2) |
| --- | --- |
| HMQQSVSSLVRRYMLQTIPGINFSLKSTALALNMSDRTLQRKLLSENTSYQIILDDVRKELAIKYLKE | -0.43 |
| HMEAYDTMEDRTTLAPGFAKLDKRERYILHLRFFEGLTQSQIAERVGISQMHVSRLIRRSLEKLREEIGD | -0.4 |
| HMKQDYYSILGVMRDASQEEIKRAYLDAAQRLHPDRNTSAGDTEMFLDVQQAYEVLSNPKRRAQYDATLP | 0.169 |

*Q* What value of soluble fraction (log2) has been reported for the following sequence? `HMNLYHALDQQGEVYLTIPPRQSGRGKVTLMIDGRVREMDAMTDGDALKTGSKVRVTEILDENALKVEAM`
*A* -0.0493

*Q* What value of soluble fraction (log2) has been reported for the following sequence? `HMQAGNAVEQYPTIGRLEEVTLGRSQPGAPIGERLSTLETVVFKRNFNDDSLFDRTERLKKTILGG`
*A* -0.0794

----------
Experiment: soluble fraction after stress (log2 fold change); higher = more stays soluble; pooled small domains, quantitative proteomics
Conditions: stress: pH 4
Measured soluble fraction (log2) of individual entries
Please give only the number in your answer, with no unit.

| chain-sequence | soluble fraction (log2) |
| --- | --- |
| HMSLDTASDKELLGLIVSEPIATRVLDAFRTLDATLFRTTPAELAAAAGVSSEHAQKIKAVAEIAARMLKP | -0.363 |
| HMGMVEFEIGERDHSEDVSRKLFEAGLIEDASDFNQYMIEKKMDDHLQTGKYQIPKGATKDEILELIVR | -0.674 |

*Q* What value of soluble fraction (log2) has been reported for the following sequence? `HMQILLASHAELAKGILSAVELIAGTQQNLKAYSAYTEAVDVHFKDQMLQDLNKMDPEDEVIL`
*A* 0.0244

*Q* What value of soluble fraction (log2) has been reported for the following sequence? `HMRVDLVQRLARHGLSPRQSAVAGGVLRGLDNGEISRQLYIAEQTVKDHLHEIYHRLGVHTRTELLIKVLG`
*A* -0.359

----------
Test: soluble fraction after stress (log2 fold change); higher = more stays soluble; pooled small domains, quantitative proteomics
Conditions: stress: pH 4
Respond with y for soluble fraction (log2) values of -0.1 and above, n for values below.

| chain-sequence | category |
| --- | --- |
| HMSELIDSLTEAVRSAPDAVPLRLHLAELLLADGQRDRAFAQLGQVLAKDPQNARALEMLGVGS | n |
| HMKLFGTPGSPFARKVRIVLEEKRIPHEYIIERGSAPGSRVPQYNPLGKVPTLVLDDGRGLYDSPVIVEYL | n |
| HMHSLGDQVFETIKELIVNNTYQPGELLQIDKLAAEFGVSTTPVREALLRLEGLGLVDIERNKAAVVT | n |
| HMGVSEIGSPAWMESKLVTLASYEGSLDGLRTLWGGVAQHRARIPVESWDRLFAAKEEGKARLVKLGRT | y |

*Q* Evaluate `HMDSVEYRVITGDDVNFRKGPSTDYASLGKLNKGYKVEYISETNSWSKVKYNGQTGYVYSKYVAQT` : soluble fraction (log2) at minimum -0.1?
*A* n

*Q* Evaluate `HMDVQNLTKKNQEFINIVTHQLLQSGKSDEDIQTILAKTLPEIIEKQKQGIPARSFLGAPTAWAAQFI` : soluble fraction (log2) at minimum -0.1?
*A* y

*Q* Evaluate `HMSDILALMPGTIKQILVAPGDSVKRGQTVIIMESMKMELTIAAHRDGVVKRIPVEQGGQVEKGMRLLELE` : soluble fraction (log2) at minimum -0.1?
*A* n

*Q* Evaluate `HMDRLTISTLGNGLFRVNGAEAEATVYNLSGNVVKVVPADEVIDLSSLAKGVYIIHVDGEAFKVI` : soluble fraction (log2) at minimum -0.1?
*A* y

----------
Experiment: soluble fraction after stress (log2 fold change); higher = more stays soluble; pooled small domains, quantitative proteomics
Settings: stress: pH 4
Each entry falls into one class according to its soluble fraction (log2); the ranges are lower level: < -0.4; middle level: ≥ -0.4 and < 0.06; upper level: ≥ 0.06

Field: example entries. Status: answers known.
| chain-sequence | category |
| --- | --- |
| HMKEIGGGPASKFIYYLIKTKHPIEQGDLIGITHLPRRTVQSAIEDLKNQGFIIERNSLDDSRRKVYYPVK | upper level |
| HMSSQWWYSAGGERKGPVDFATLRGLYVQGAIDGRTLAWREDMQGWEAVNDIPDLEPLRRAVPPEL | upper level |
| HMTRHSSVDFAGYILRNKENEPIFGFGKHKGKTVVEVLQREQGYFGWLMEADFPLYTKKVLTAIRLNTLNS | upper level |
| HMGGLENNLKQARNRVGLTQSELARQAGISRQAYSSLESGAANPSTEVALRLAQALSERVESLFYLPE | middle level |
| HMESILDDFPGLGAVRRAALLEHFGDIDRLRAASAVEITEVDGFGDVLARELHDFLHRPKPDA | lower level |

*Q* Entry `HMDAPKPDIGMSTDQIRSSLGQPGSQTRLETGGGRIYELWIYLYPDGKELQIYFDNAKVVKMEALS` belongs to which category?
*A* lower level

*Q* Entry `HMGSGQVTLPDLEGKSMKEVARILSQLGLHLSPDGHGLAFKQSPAAGTRVPVGSTIKVSFQPL` belongs to which category?
*A* middle level

*Q* Entry `HMTVPNVVGQRILAAQDILKNLGLKVLVDTNLPNSQWGLRNVKSTNPGAGAVVRVGDTVTLIAR` belongs to which category?
*A* upper level

*Q* Entry `HMNDNTAINEFKKMVFTRMVHLQIDNAELSKLSGVTNSKILALKYGNSNTLKLGDIVKVAKTLNINLNDL` belongs to which category?
*A* upper level

*Q* Entry `HMDIEITIPPEAKELDVSKILISGNIITDEQEFLDYLKQNNVAAFKDGNYKLNKNMTTEEIVNQIK` belongs to which category?
*A* lower level

*Q* Entry `HMRKEPSYASDIITRLKEADLIVVEGTLYPLLTRLKKDGLLSYEWRESTQGPPRKYYALTLDGET` belongs to which category?
*A* lower level

*Q* Entry `HMNSSTVDLAKEFLIDLLSSVEKMPASEVQEEAKNAGYSVASIRRAKDNLNIKPFKDGSAWYWKLPSIFK` belongs to which category?
*A* lower level

*Q* Entry `HMPTITIQRGIILSSTTKGFIDELSHSQIKNAIVERLGEHHVMIHESQLDAVIKYAQKKEAVINIYL` belongs to which category?
*A* middle level

*Q* Entry `HMREYEKAVDYVRRMISSGSLNVGDRLPTERELSLELDISRNSTREAMRMLENMGIIVSRHGSGNYISGN` belongs to which category?
*A* middle level

*Q* Entry `HMHEYSRIYQQQWWDNATGADAYHVIHSARSRAAQDPEAARALEYLEEQFRIRYGVRTEDFLGYLHD` belongs to which category?
*A* lower level

*Q* Entry `HMAGLELVVTREQAGRTVKSLLRGELGISTALMGRLKRTGTGLTVNGTRVFTNAVLREGDRLAVDLDAAE` belongs to which category?
*A* middle level

*Q* Entry `HMTKTFDSPEDADNDVLAKTLFQIFGVQSVYLKENFVTITKSNSVGWHTLMEKTGHTLEEHLKF` belongs to which category?
*A* middle level

----------
Assay: soluble fraction after stress (log2 fold change); higher = more stays soluble; pooled small domains, quantitative proteomics
Details: stress: pH 4
Measured soluble fraction (log2) of individual entries
Please give only the number in your answer, with no unit.

Past entries and their recorded results:
| chain-sequence | measured |
| --- | --- |
| HMEWEVHSVTVTPELSGERLDVAATALLSQFSRALVQRWIDANELTLNERPVKAKSKVRVGDLIAVKAK | 0.0878 |
| HMTEWDDATVKDAVEYFMSVNGRVPTVTDFKKENGLPSHPVIKQRYKINLHEWLNKNFPTYY | -1.19 |
| HMQEISQEEALATVLKDLSLTEADLKDLQITREEDKYKILFSKGQTAYDVLVSAKDGQLLQSKQETI | -0.359 |
| HMTLGQHIQALRKEAGYSQEALGEALGVTRQSISKWESDQAIPEVDKLVTLSRLFQVPVGVLLQVEQP | -0.166 |

*Q* What value of soluble fraction (log2) has been reported for the following sequence? `HMHREITGSLAERNGRYTAILNLYDEDGKRRQKSIALGIPVKGNKRKAQAQLEELKRAYSLGLPQ`
*A* 0.051

*Q* What value of soluble fraction (log2) has been reported for the following sequence? `HMTITPEVIVNHFKNLDLFFTKNGNYYEFKKKGTENILFKYGIYKQKPNIFVKIQRYPISSLSDLERIPI`
*A* -0.159

*Q* What value of soluble fraction (log2) has been reported for the following sequence? `HMSEVPAAVLVTGGSINLREAPSTDATIIDVAQVGEKMTVLAEKNSWYQVSRGGRNVWVASWVVDPLT`
*A* -0.566

*Q* What value of soluble fraction (log2) has been reported for the following sequence? `HMQVFDSNEIDEVVKKVIENNPQAVADFKKGKSNALQFLAGQVMRETKGRFNPNVVQERIRLLLT`
*A* 0.256

*Q* What value of soluble fraction (log2) has been reported for the following sequence? `HMISEWDAAYSYAKQYYEENGHLFVPKKYVTSEGAALGKWIWEQRDSYLGLSSYKISDKKIEMLEDIGMFW`
*A* -2.73

*Q* What value of soluble fraction (log2) has been reported for the following sequence? `HMETLKINTHLGTLNLKKRGKKGTWQINIYFKNIEGDNHYRQSTGTNQLELAKAKAMNMITTEYSNRLAGI`
*A* -0.259

*Q* What value of soluble fraction (log2) has been reported for the following sequence? `HMGAGFREAIPPALDGERIDRVVSLLAYVSRNRAAGALAAGSVSVDGEVVFQRSRRVREGEELVVTGFERE`
*A* -0.427

*Q* What value of soluble fraction (log2) has been reported for the following sequence? `HMEIEETKKNSRTKIPENFDYKLINGLSNEIRAKLELIRPIDLLQASRIDGMTPAALTLVHLWIKKYSG`
*A* -0.419

*Q* What value of soluble fraction (log2) has been reported for the following sequence? `HMINEVVSLRDVPSFIGKAKRDVIRIAEENNLKIKINGNGYVKEQTPNPGNKYKSNQEIKVFLEPG`
*A* 0.0157

*Q* What value of soluble fraction (log2) has been reported for the following sequence? `HMGFDTSMNKYTIDDLLKLLELGSNPSQAEIVNKITNFNTIFVDNSGVIQFLNNIQDKLLDNFK`
*A* -0.95

*Q* What value of soluble fraction (log2) has been reported for the following sequence? `HMGKAMIDWEREQSILRILLRQKALTTEQAREVYQDGMREDLSALEMGVQRGYFTHEQLREATGGE`
*A* 0.00817

*Q* What value of soluble fraction (log2) has been reported for the following sequence? `HMPQQVFKREDLQKWGLTGQADSRKRREKLGQLLGIGYGNGKQLIHRLNMFQVDRATFEQAIKQINQEEDH`
*A* 0.00776

*Q* What value of soluble fraction (log2) has been reported for the following sequence? `HMTNTDYPGKVVPVDPDGKTLKPDGDASYNDKPGTKVKTPTVPGYTAEVPNVEVPVGGGDIKVTYHKKPV`
*A* 0.0461
